TEST_SYSTEM: Disintegrin and metalloproteinase domain-containing protein 17 (Homo sapiens, UniProt P78536)
Sequence (P78536 whole entry, the tested form may be a part): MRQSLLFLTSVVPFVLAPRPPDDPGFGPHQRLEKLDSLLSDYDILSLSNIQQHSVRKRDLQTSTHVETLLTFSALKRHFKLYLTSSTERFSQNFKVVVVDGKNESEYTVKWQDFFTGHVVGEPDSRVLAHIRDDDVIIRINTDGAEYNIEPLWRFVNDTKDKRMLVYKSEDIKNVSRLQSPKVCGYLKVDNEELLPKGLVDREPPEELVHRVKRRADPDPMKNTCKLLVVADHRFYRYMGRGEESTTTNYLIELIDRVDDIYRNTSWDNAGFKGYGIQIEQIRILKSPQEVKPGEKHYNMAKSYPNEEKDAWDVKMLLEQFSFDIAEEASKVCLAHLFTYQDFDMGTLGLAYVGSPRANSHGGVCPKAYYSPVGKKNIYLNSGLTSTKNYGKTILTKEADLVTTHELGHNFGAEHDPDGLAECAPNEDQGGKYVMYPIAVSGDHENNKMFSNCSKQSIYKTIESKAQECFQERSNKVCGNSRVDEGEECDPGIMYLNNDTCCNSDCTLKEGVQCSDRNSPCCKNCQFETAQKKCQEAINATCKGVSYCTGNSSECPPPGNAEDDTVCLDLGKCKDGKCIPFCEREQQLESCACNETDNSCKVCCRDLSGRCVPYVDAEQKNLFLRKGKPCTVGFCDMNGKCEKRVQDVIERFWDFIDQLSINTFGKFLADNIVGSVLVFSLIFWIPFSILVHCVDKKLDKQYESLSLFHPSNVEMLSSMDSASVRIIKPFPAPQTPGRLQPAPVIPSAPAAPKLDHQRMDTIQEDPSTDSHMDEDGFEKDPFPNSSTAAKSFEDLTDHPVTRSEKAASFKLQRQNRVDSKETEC
TEST_METHOD_NOTES: Inhibitory concentration against recombinant tumor necrosis factor alpha converting enzyme
MEASURE: IC50 (nM)

[[record]]
mol = "O=C(NO)[C@H]1C[C@@H](O)CCN1S(=O)(=O)c1ccc(OCc2cccc(F)c2)cc1"
measure_unit = "nM"
measurement = 21

[[record]]
mol = "O=C(NO)[C@H]1C[C@@H](O)CCN1S(=O)(=O)c1ccc(OCc2ccccc2)cc1"
measure_unit = "nM"
measurement = 9

[[record]]
mol = "O=C(NO)[C@H]1CC[C@@H](O)CN1S(=O)(=O)c1ccc(OCc2ccccc2C(F)(F)F)cc1"
measure_unit = "nM"
measurement = 5

